Test system: Vero E6 infected with SARS-CoV-2
Assay: inhibition of SARS-CoV-2 cytopathic effect; higher = more antiviral protection, active = above 15
Details: 100 nM; 48 h
Where a name gives a salt, the structure may show the parent alone.
Please provide measured inhibition of SARS-CoV-2 cytopathic effect for the entries that follow.

query: Could you tell me which inhibition of SARS-CoV-2 cytopathic effect is on file for "CCOC(=O)N1CCC(=C2c3ccc(Cl)cc3CCc3cccnc32)CC1" ?
result: 0.11% (inactive)

query: How about CN(C)C(=O)COC(=O)Cc1ccc(OC(=O)c2ccc(NC(=N)N)cc2)cc1 [Camostat mesylate] ?
result: -0.94% (inactive)

query: How about "CN1CCN(c2cccc(Nc3nc4c(-c5ccc(S(C)(=O)=O)cc5)cccn4n3)c2)CC1" ?
result: 0.85% (inactive)

query: How about "COc1cc2ncnc(Nc3cccc(Cl)c3)c2cc1OC" ?
result: -7.3% (inactive)

query: How about "O=C1[C@H](Cc2ccc(O)cc2)N2C(=O)CCN(C(=O)NCc3ccccc3)[C@H]2CN1Cc1cccc2ccccc12" ?
result: 2.23% (inactive)

----------
Tested on: Vero E6 infected with SARS-CoV-2
Assay: morphology score (similarity to uninfected cells); higher = more like uninfected cells
Settings: 24 h
Value type: morphology score
Just the number, please.

query: Could you tell me which morphology score is on file for c1cncc(CN2CCC(n3ncc4c(N5CCOCC5)nc(-c5ccc6[nH]ccc6c5)nc43)CC2)c1 (0.833333 µM) ?
result: 0.491

query: How about O=NO [sodium-nitrite] (10 µM) ?
result: 0.176

query: How about C/C=C1\[C@H]2C=C(C)C[C@]1(N)c1ccc(=O)[nH]c1C2 [(-)-Huperzine A] (10 µM) ?
result: -0.118

query: How about Cc1nccn1CCC(C(N)=O)(c1ccccc1)c1ccccc1 [imidafenacin] (10 µM) ?
result: 0.133

query: How about BrC1C(Br)C(Br)C(Br)C(Br)C1Br (stereo unspecified) [1,2,3,4,5,6-hexabromocyclohexane] (10 µM) ?
result: 0.416

query: How about CN(C)CC[C@@](O)(c1ccccc1)c1ccccc1Cl [clofedanol] (10 µM) ?
result: -0.0705

query: How about CC(C)C1=C2[C@H]3CC[C@@H]4[C@@]5(C)CC[C@H](OC(=O)CC(C)(C)C(=O)O)C(C)(C)[C@@H]5CC[C@@]4(C)[C@]3(C)CC[C@@]2([C@@H](O)CN(CCN(C)C)Cc2ccc(Cl)cc2)CC1=O (10 µM) ?
result: 0.203

query: How about COc1ccc(Nc2ccn(-c3ccccc3)n2)cc1 (10 µM) ?
result: 0.166

query: How about CCOC1O[C@H]([C@@H](COCc2ccccc2)OCc2ccccc2)[C@H](OCc2ccccc2)[C@H]1O (stereo partly specified) [tribenoside] (10 µM) ?
result: -0.0493

query: How about O=C(O)CNC(=O)C(CS)Cc1ccccc1 (stereo unspecified) [thiorphan] (10 µM) ?
result: 0.106

query: How about C[C@H](N)[C@H](O)c1cccc(O)c1 [metaraminol] (10 µM) ?
result: -0.0578

query: How about CC[C@H](CC[C@@H](C)[C@H]1CC[C@H]2[C@@H]3CC=C4C[C@@H](O[C@@H]5O[C@H](CO)[C@@H](O)[C@H](O)[C@H]5O)CC[C@]4(C)[C@H]3CC[C@]12C)C(C)C [daucosterol] (10 µM) ?
result: 0.0785

query: How about CCn1c(O)nnc1-c1ccc(Cl)cc1 [5-(4chlorophenyl)-4-ethyl-2,4-dihydro-3H-1,2,4-triazol-3-one] (0.833333 µM) ?
result: 0.0166

query: How about O=C1NC(c2cccc([N+](=O)[O-])c2)=CCN1c1ccccc1O [icilin] (10 µM) ?
result: 0.0675

query: How about N[C@]1(C(=O)O)CC[C@@H](C(=O)O)C1 (10 µM) ?
result: 0.188

query: How about CCOCc1nc2c(N)nc3ccccc3c2n1CC(C)(C)O [resiquimod] (10 µM) ?
result: 0.0727

query: How about COc1ccncc1C(=O)NC(=O)Nc1ccc(-c2ccccc2)c(C(F)(F)F)c1 [S1P1-agonist-III] (10 µM) ?
result: -0.0188

query: How about O=C(NCC1(N2CCN(c3ccccc3)CC2)CCOCC1)c1cccnc1Sc1ccccc1 (10 µM) ?
result: -0.047

query: How about C[C@@H]1C[C@H]2[C@@H]3CCC4=CC(=O)C=C[C@]4(C)[C@@]3(F)[C@@H](O)C[C@]2(C)[C@@]1(O)C(=O)COP(=O)(O)O (10 µM) ?
result: 0.0439

query: How about Oc1cc2c(cc1O)[C@H]1c3ccccc3CN[C@@H]1CC2 (racemic) [dihydrexidine] (10 µM) ?
result: -0.0209

query: How about CS(=O)(=O)Nc1ccc(-c2coc3cc(OCc4cccc(C(=O)O)c4)ccc3c2=O)cc1 (10 µM) ?
result: 0.0543

query: How about CCC(COC(=O)c1cc(OC)c(OC)c(OC)c1)(c1ccccc1)N(C)C (stereo unspecified) [trimebutine] (10 µM) ?
result: 0.103

query: How about C[C@H](Cn1cnc2c(N)ncnc21)OCP(=O)(O)O [tenofovir] (10 µM) ?
result: -0.0359

query: How about Oc1cccc(-c2c3nc(c(-c4cccc(O)c4)c4ccc([nH]4)c(-c4cccc(O)c4)c4nc(c(-c5cccc(O)c5)c5ccc2[nH]5)CC4)C=C3)c1 [temoporfin] (0.833333 µM) ?
result: -0.0311

query: How about CCN[C@H]1C[C@H](C)S(=O)(=O)c2sc(S(N)(=O)=O)cc21 [dorzolamide] (10 µM) ?
result: 0.0923

query: How about Cn1cnc([N+](=O)[O-])c1Sc1ncnc2[nH]cnc12 [azathioprine] (10 µM) ?
result: 0.172

query: How about O=C1S/C(=C\c2ccc(OCc3cccc(B(O)O)c3)cc2)C(=O)N1Cc1ccc(F)cc1 (10 µM) ?
result: 0.0573

query: How about Cc1onc(-c2c(Cl)cccc2Cl)c1C(=O)N[C@@H]1C(=O)N2[C@@H]1SC(C)(C)[C@@H]2C(=O)O [dicloxacillin] (10 µM) ?
result: 0.0315

query: How about OC(c1ccccc1)C1CCN(CCc2ccccc2)CC1 (stereo unspecified) (10 µM) ?
result: -0.103

query: How about O=C(O)c1ccc2nc(-c3cc(Cl)cc(Cl)c3)oc2c1 [tafamidis-meglumine] (10 µM) ?
result: 0.242

query: How about CCCCCCCCCCCCCC(=O)[O-].CCCCCCCCCCCCCC(=O)[O-].N[C@@H]1CCCC[C@H]1N.[Pt+2] [miriplatin] (10 µM) ?
result: 0.0834
